# credit: paper PMC5540273

Tested on: CAMK2A
STATED CONDITIONS: concentration: 1 μM, replicates: in singlicate; n = 1;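 note: KINOMEscan kinase panel screen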
MEASURED PROPERTY: %Inh (%)
Write down the numeric answer in % and omit the unit.

// below: answered molecules
MOLECULE	%Inh [%]
CC(C)(C)OC(=O)NC1CCCN(c2cc(-c3ccc4c(N)n[nH]c4c3)nc(N)n2)C1 (centres unmarked)	0
Cc1ccc(NC(=O)c2cccc(C#N)c2)cc1-c1ccc(C(=O)Nc2ccncc2)cc1	7
Cl.c1ccc(Cn2ncc3cc(Nc4ncnc5ccccc45)ccc32)cc1	2
N#Cc1ccc(Oc2ccc(Nc3ncnc4cc[nH]c34)cc2Cl)cc1	21
CCCc1ccc(S(=O)(=O)NC2CCN(c3ccnc(Nc4ccc(OC)cc4)n3)C2)cc1 (centres unmarked)	0

input: Notebook: pull reported %Inh for CAMK2A, entry `O=C(Nc1n[nH]c2nc(-c3ccco3)c(Br)cc12)c1ccc(CN2CCCC2)cc1.O=C(O)[C@H](O)[C@@H](O)C(=O)O`
output: 2

input: Notebook: pull reported %Inh for CAMK2A, entry `FC(F)(F)c1ccc(-c2nn3ncccc3c2-c2ccnc(Nc3cccc(C(F)(F)F)c3)n2)cc1`
output: 0

input: Notebook: pull reported %Inh for CAMK2A, entry `Nc1nccc2scc(-c3ccc4c(c3)CCN4C(=O)Cc3cc(F)ccc3F)c12`
output: 0

====

Tested on: PAK7
STATED CONDITIONS: concentration: 1 μM, replicates: in singlicate; n = 1
MEASURED PROPERTY: %Inh
Note: a bare number is incomplete; add the unit.

// below: answered compounds
COMPOUND	%Inh
CCc1nc(-c2cccc(N(C)S(=O)(=O)c3ccccc3)c2)c(-c2ccnc(Nc3ccc(N4CCN(C(C)=O)CC4)nc3)n2)s1 [GSK1645895]	5%
Clc1cc(Nc2ncnc3cc[nH]c23)ccc1OCc1ccccn1	7%
Cc1ccc(C)c(NC(=O)NCCNc2ccnc(Nc3ccc(F)cc3)n2)c1 [GSK1379878]	0%
CCC(CC)(CC)n1cnc2c(N)ncnc21 [SKF-97620]	10%
COc1cc2ncnc(Nc3ccc(OCc4ccccc4Br)c(Cl)c3)c2cc1OC.Cl [GI261590]	5%

input: Name the recorded %Inh for CS(=O)(=O)CCNCc1ccc(-c2ccc3ncnc(Nc4ccc(OCc5ccccc5)c(Cl)c4)c3c2)o1.Cl [GW574783] .
output: 0%

input: Name the recorded %Inh for CNc1nccc(-c2c(-c3ccc(F)cc3)ncn2C2CCN(C)CC2)n1 [SB-222903] .
output: 0%

input: Name the recorded %Inh for c1ccc(-c2ccc3c(-c4ccnc(Nc5ccc6c(c5)OCCO6)n4)cnn3n2)cc1 [GW818941] .
output: 0%

input: Name the recorded %Inh for Clc1cccc(-c2nc(Nc3ccncc3)c3ccccc3n2)c1 [GW873004] .
output: 0%

====

Tested on: JNK1
Construct: gene MAPK8
STATED CONDITIONS: concentration: 1 μM, replicates: in singlicate; n = 1
Each record's %Inh is compared with low class (below 1%), middle class (1% to below 20%), high class (20% or more) to give its class.

# example entries with known answers
COMPOUND	TESTED ON	DISCRETE LABEL
CCC(CC)(CC)n1cnc2c(N)ncnc21	JNK1	high class
Clc1cccc(-c2nc(Nc3ccncc3)c3ccccc3n2)c1	JNK1	low class
COc1ccc(NC(=O)Nc2ccc(C)c(-c3ccc(C(=O)Nc4ccncc4)cc3)c2)cc1	JNK1	middle class
Cn1ccc2ncnc(Oc3ccc(NC(=O)Nc4cccnc4)c(Cl)c3)c21	JNK1	low class
CCc1nc(-c2cccc(C)c2)c(-c2ccnc(NC(=O)c3ccccc3)c2)s1	JNK1	high class

input: Classify this compound: `Fc1cccc(COc2ccc(Nc3ncnc4nn5ccccc5c34)cc2Cl)c1`
output: middle class

input: Classify this compound: `CS(=O)(=O)CCNCc1nc(-c2ccc3ncnc(Nc4ccc(OCc5cccc(F)c5)c(Cl)c4)c3c2)cs1.Cl`
output: low class

input: Classify this compound: `COc1cc2ncnc(Nc3ccc(OCc4ccccc4Br)c(Cl)c3)c2cc1OC.Cl`
output: middle class

input: Classify this compound: `CN1c2ccc(-c3ccc(C(=O)NCCO)cc3)cc2-c2[nH]ncc2S1(=O)=O`
output: middle class

input: Classify this compound: `O=C(Nc1ccccc1)Nc1ccc(Oc2ccc3nccn3n2)cc1`
output: low class

input: Classify this compound: COc1ccc(Nc2nccc(N3CCC(NC(=O)c4cccc(NC(C)=O)c4)C3)n2)cc1 (stereo not drawn)
output: middle class

input: Classify this compound: `N#Cc1ccc(Oc2ccc(Nc3ncnc4cc[nH]c34)cc2Cl)cc1`
output: high class

input: Classify this compound: `Clc1cc(Nc2ncnc3cc[nH]c23)ccc1OCc1ccccn1`
output: high class

input: Classify this compound: `NC(=O)c1sc(-n2cnc3ccccc32)cc1OCc1ccccc1F`
output: middle class

input: Classify this compound: `FC(F)(F)c1ccc(-c2nn3ncccc3c2-c2ccnc(Nc3cccc(C(F)(F)F)c3)n2)cc1`
output: low class
